// data source = patent US9034907B2

Target: glutaminyl cyclase (QC) (Homo sapiens (Human), UniProt Q16769)
Sequence (Q16769 29-361): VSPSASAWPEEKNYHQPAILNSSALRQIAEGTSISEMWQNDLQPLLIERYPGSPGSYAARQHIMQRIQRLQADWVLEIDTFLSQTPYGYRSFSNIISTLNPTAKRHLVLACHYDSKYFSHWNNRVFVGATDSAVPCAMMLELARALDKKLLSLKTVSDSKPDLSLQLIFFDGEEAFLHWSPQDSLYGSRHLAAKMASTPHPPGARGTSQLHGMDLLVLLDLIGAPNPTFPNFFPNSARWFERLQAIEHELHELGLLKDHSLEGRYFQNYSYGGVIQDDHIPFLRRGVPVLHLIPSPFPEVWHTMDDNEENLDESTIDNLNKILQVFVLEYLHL
MEASUREMENT_NAME: IC50 (µM)
Numbers only, in µM.

Exam item: Request the reported IC50 associated with O=c1c2ccccc2[nH]c(=S)n1-c1ccc2[nH]cnc2c1 [Example 43]
Marked response: 121
